- tested_system: human PAH with the R408W mutation (Homo sapiens, UniProt P00439, R408W)
- Construct: expressed in transfected cells
- protocol_details: Cell Based Phenylalanine Flux Assay
- condition_set: A375 cells expressing human R408W PAH; 24 hrs compound incubation; 13C-Tyrosine by LC-MS; average where tested multiple times; read-out: AC50
quantity_measured: AC50

Example results:
mol_smiles	AC50
CC[C@@H](O)c1nc(C(F)F)c(C(=O)N2CCc3[nH]cnc3[C@H]2c2nc3c(F)cccc3s2)o1	< 0.5 µM
CC(C)(C)c1ncoc1C(=O)N1CCc2[nH]cnc2[C@@H]1c1nc2c(F)cccc2s1	1 to 5 µM

Asked: // returns reported AC50 for input "O=C(c1ncco1)N1CCc2[nH]cnc2[C@@H]1c1nc2c(F)cccc2s1"
Given back: > 5 µM

---

# key: entry, value: AC50
- tested_system: human PAH with the R408W mutation (Homo sapiens, UniProt P00439, R408W)
- Construct: expressed in transfected cells
- Sequence (P00439 1-452 R408W): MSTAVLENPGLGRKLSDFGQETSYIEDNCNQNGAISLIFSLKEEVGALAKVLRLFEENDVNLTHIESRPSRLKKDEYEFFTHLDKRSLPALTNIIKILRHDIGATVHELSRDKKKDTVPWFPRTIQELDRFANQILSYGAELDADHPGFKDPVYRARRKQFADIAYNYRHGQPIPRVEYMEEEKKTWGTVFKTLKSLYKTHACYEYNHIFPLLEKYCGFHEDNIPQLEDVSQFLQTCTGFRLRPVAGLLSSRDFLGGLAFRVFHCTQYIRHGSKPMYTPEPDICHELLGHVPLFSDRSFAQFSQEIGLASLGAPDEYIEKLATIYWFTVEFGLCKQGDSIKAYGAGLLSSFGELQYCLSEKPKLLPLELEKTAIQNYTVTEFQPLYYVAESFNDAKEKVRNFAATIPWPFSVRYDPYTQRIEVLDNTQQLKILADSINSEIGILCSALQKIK
- protocol_details: Cell Based Phenylalanine Flux Assay
- condition_set: A375 cells expressing human R408W PAH; 24 hrs compound incubation; 13C-Tyrosine by LC-MS; average where tested multiple times; read-out: AC50

mol_smiles	recorded_measurement
O=C(c1cnc(C2CC2)o1)N1CCc2[nH]cnc2[C@@H]1c1nc2ccccc2s1	1 to 5 µM
O=C(c1nncs1)N1CCc2[nH]cnc2[C@@H]1c1nc2ccc(Cl)cc2[nH]1	> 5 µM

The record that follows has no AC50 shown yet.
Asked: human PAH with the R408W mutation (Homo sapiens, UniProt P00439, R408W) / AC50 / "CC(C)(O)c1nc(Cl)c(C(=O)N2CCc3[nH]cnc3[C@H]2c2nc3c(F)cccc3s2)s1" : value?
Given back: 1 to 5 µM

---

- tested_system: human PAH with the R408W mutation (Homo sapiens, UniProt P00439, R408W)
- Construct: expressed in transfected cells
- protocol_details: Cell Based Phenylalanine Flux Assay
- condition_set: A375 cells expressing human R408W PAH; 24 hrs compound incubation; 13C-Tyrosine by LC-MS; average where tested multiple times; read-out: AC50
quantity_measured: AC50

Example results:
mol_smiles	quantity_measured	recorded_measurement
CC(C)(O)c1nc(C(F)F)c(C(=O)N2CCc3[nH]cnc3[C@@H]2c2nc3ccccc3s2)s1	AC50	< 0.5 µM
O=C(c1cn[nH]c1Cl)N1CCc2[nH]cnc2[C@@H]1c1nc2c(F)cccc2s1	AC50	1 to 5 µM

Asked: human PAH with the R408W mutation (Homo sapiens, UniProt P00439, R408W) / AC50 / "O=C(c1nnc(-c2cn[nH]c2)o1)N1CCc2[nH]cnc2[C@@H]1c1nc2ccccc2s1" : value?
Given back: 1 to 5 µM

Asked: Next record, please: "O=C(c1cnn2ccc(F)cc12)N1CCc2[nH]cnc2[C@@H]1c1nc2ccccc2s1"
Given back: 1 to 5 µM
